Tested on: parental IL-3 dependent Ba/F3 cells
Assay: cells
Conditions: Mus musculus, BaF3, read-out: GI50, Ba/F3 parental
Catalogue of GI50 values
The reply should contain only the number, in µM.

Recorded GI50, per entry:
> print(dat)
                           smiles.structure  value.units  recorded.number
1  CN1CCN(Cc2ccc(NC(=O)Nc3ccc(Oc4ccc5cccnc5c4)cc3)cc2C(F)(F)F)CC1           µM             5.22
2  CN1CCN(Cc2ccc(NC(=O)Nc3ccc(Oc4ccc5ncncc5c4)cc3)cc2C(F)(F)F)CC1           µM             5.58
3  CN1CCN(Cc2ccc(NC(=O)Nc3ccc(Oc4ccncc4)cc3)cc2C(F)(F)F)CC1           µM                5
4  CNC(=O)c1cc(Oc2ccc(NC(=O)Nc3ccc(CN4CCN(C)CC4)c(C(F)(F)F)c3)cc2)ccn1           µM             4.84
5  CN1CCN(Cc2ccc(NC(=O)Nc3ccc(Nc4ccc5ncccc5c4)cc3)cc2C(F)(F)F)CC1           µM             5.12

Kindly consider the entry below.
## Task Given `CN1CCN(Cc2ccc(NC(=O)Nc3ccc(Oc4ccc5ncccc5c4)cc3)cc2C(F)(F)F)CC1` , state its recorded GI50.
## Result 5.3

Numbers sourced from patent US10196378B2.
